Hello, the source for this data is patent EP4796130A1, in case you need it.

Test system: T47D (a breast cancer cell line)
Assay: cells
Type: cell-based
Settings: Homo sapiens, 144 h
measured-metric: IC50

Prompt: Which IC50 reading was recorded for the compound `CC[C@@]1(O)C(=O)OCc2c1cc1n(c2=O)Cc2c-1nc1cc3c(c4c1c2[C@@H](NC(=O)[C@@H](C)O)CC4)OCO3` ?
Response: 0.46 nM

----------
System: KYSE-520 (an esophageal cancer cell line)
Assay: In-vitro cell viability assay (CellTiter-Glo)
Assay type: cell-based
Details: Homo sapiens, KYSE-520, 144 h
measured-metric: pIC50
Hey, just a heads up that pIC50 is the negative log base 10 of the concentration in molar.

Prompt: What pIC50 value was documented for this compound, `CC[C@@]1(O)C(=O)OCc2c1cc1n(c2=O)Cc2c-1nc1cc3c(c4c1c2[C@@H](NC(=O)[C@@H](C)O)CC4)OCO3` ?
Response: 8.69
